Each entry below carries its recorded viability, T/C.
System: 885724-159-R-J1-PDC complex spheroid viability;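 also: spheroids exposed to agents for seven days before readout; percent of vehicle control viability where 100% = DMSO wells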
Test Protocol: Anticancer human tumor 885724-159-R-J1-PDC patient-derived pancreatic adenocarcinoma cell line growth inhibition [GQUAD]
Condition Notes: second compound 0.0316 µM; first compound 0.0316 µM; hits give low values
Kindly provide the numeric value in % only, without the unit symbol.

**Q:** What value of viability, T/C has been reported for the following compound? COc1cc(C2c3cc4c(cc3C(OC3OC5COC(C)OC5C(O)C3O)C3COC(=O)C23)OCO4)cc(OC)c1O (stereo not drawn) + CN(C)c1ccc(Nc2c3ccc(NC(=O)CCN4CCCC4)cc3nc3cc(NC(=O)CCN4CCCC4)ccc23)cc1
**A:** 94.3

**Q:** I am curious: what viability, T/C value has been reported for COc1cc(C2c3cc4c(cc3C(OC3OC5COC(C)OC5C(O)C3O)C3COC(=O)C23)OCO4)cc(OC)c1O (stereo not drawn) + Cc1cnc(CNC(=O)c2c(=O)c3ccc(N4CCCN(C)CC4)nc3n3c2sc2ccccc23)cn1 ?
**A:** 113

**Q:** Which measured viability, T/C value corresponds to CC(C)(O)C1CCC(Nc2ccc3ncc(-c4cccc(C(F)(F)F)c4)n3n2)CC1 (stereo not drawn) + Cc1cnc(CNC(=O)c2c(=O)c3ccc(N4CCCN(C)CC4)nc3n3c2sc2ccccc23)cn1 ?
**A:** 112
